Data provenance is patent US20150166606A1.

# systemTested: Activated human plasma kallikrein (Enzyme Research Laboratories, HPKa 1303) (human, UniProt P03952 20-638)
# Sequence (P03952 20-638 limits assumed): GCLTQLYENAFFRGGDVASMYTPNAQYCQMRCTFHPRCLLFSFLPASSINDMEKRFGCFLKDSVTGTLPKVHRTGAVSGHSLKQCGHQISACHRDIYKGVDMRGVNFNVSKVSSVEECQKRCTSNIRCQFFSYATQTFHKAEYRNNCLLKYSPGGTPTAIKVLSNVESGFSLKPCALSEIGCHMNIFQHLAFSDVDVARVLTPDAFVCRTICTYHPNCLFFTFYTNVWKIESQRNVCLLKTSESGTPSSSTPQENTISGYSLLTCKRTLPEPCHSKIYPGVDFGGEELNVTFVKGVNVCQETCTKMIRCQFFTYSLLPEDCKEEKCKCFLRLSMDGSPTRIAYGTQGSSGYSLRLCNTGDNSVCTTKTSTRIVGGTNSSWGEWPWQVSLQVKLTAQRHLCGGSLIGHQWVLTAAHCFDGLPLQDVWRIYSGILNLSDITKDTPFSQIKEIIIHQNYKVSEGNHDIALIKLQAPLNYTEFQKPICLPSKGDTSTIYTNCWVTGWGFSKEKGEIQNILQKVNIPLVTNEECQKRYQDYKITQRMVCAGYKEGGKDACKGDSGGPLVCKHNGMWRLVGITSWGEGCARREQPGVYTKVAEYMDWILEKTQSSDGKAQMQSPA
# testName: cell-based or functional assay
Bridge positions count the residues as written; N and C are the ends. Square brackets hold non-standard residues; d marks the D form. Ends that are not written are not given here. mXylyl = xylyl linker from dibromoxylene joining the two cysteines; des‑NH2 = missing amino-terminal amine group; Phe(4-CH2NH2) = NCc1ccc(C[C@H](N)C(=O)O)cc1; Phg = N[C@H](C(=O)O)c1ccccc1; Tle = CC(C)(C)[C@H](N)C(=O)O; Nva = CCC[C@H](N)C(=O)O

binder	Avg. IC50 (nM)
[Nva]CESIC[Phe(4-CH2NH2)]V-NH2 (linker 2-6 via mXylyl) [R2021]	2000
MCESICKV-NH2 (linker 2-6 via mXylyl) [R2040]	733
Ac-CAS[Tle]CR[Tle]-NH2 (linker 1-5 via mXylyl) [R2048]	1400
Ac-CESICRVLRYSE-NH2 (linker 1-5 via mXylyl) [R2057]	0.943
{des‑NH2}-CAA[Phg]CR[Tle]-NH2 (linker 1-5 via mXylyl; not fully specified (residue 1); printed as [mXylyl(1,5)](des-NH2)C-AA-Phg-CR-Tbg-NH2) [R2075]	2.6
